Conditions: 328.15 K; 101.33 kPa; Liquid; Capillary tube (Ostwald / Ubbelohde) method
Parameter: viscosity. Scope: all listed entries.
Report as a plain number; the unit mPa·s is understood.

Worked examples, 3 compounds total:
>>> df
                            structurestring  numericresult
0  CCCCCC[n+]1cc(C)cc(C)c1C.O=S(=O)([N-]S(=O)(=O)C(F)(F)F)C(F)(F)F           39.3
1  CCCCCc1c(C)cc(C)c[n+]1CCCC.O=S(=O)([N-]S(=O)(=O)C(F)(F)F)C(F)(F)F             51
2  CCCCCC[n+]1cc(C)cc(C)c1CCCCC.O=S(=O)([N-]S(=O)(=O)C(F)(F)F)C(F)(F)F           55.7

Let's switch to this compound now.
Request: Bench note: what viscosity did CCCCCc1c(C)cc(C)c[n+]1CC.O=S(=O)([N-]S(=O)(=O)C(F)(F)F)C(F)(F)F show?
Response: 50.1
